- Test system: HCC-2998 colon
- EXPERIMENT_DESCRIPTION: NCI-60 one-dose screen, 48 h
- REPORTED_CONDITIONS: 10 µM unless noted
This is part of a sample that, as a whole, favours compounds with a hit. Of some 83,000 tested, about 20% had one in any assay. Activity calls are given as the source filed them. The calls were made as follows: active = growth percent below 10; inactive = the rest.
Tick one outcome: active, inactive

Example entries and their recorded answers appear below.
Which result was noted for this molecule in the test: `C#CCOc1cccc(Nc2ncnc3cc(NC(=O)C=C)ccc23)c1` inactive

Which result was noted for this molecule in the test: CC(=O)N1N=C(c2ccc(Nc3nc(Nc4ccccc4)nc(Nc4ccccc4)n3)cc2)CC1c1cccc([N+](=O)[O-])c1 (stereo not drawn) inactive

Which result was noted for this molecule in the test: CCOC(=O)C(=O)C(C(=O)OCC)c1ccccc1 (stereo not drawn) inactive

Which result was noted for this molecule in the test: `CCn1c(SCC(=O)N/N=C(\C)c2ccc(Cl)cc2)nc2c1c(=O)n(C)c(=O)n2C` inactive

New cases:
Which result was noted for this molecule in the test: `O=C(O)CCN1C(=O)/C(=C/C(Cl)=C/c2ccccc2)SC1=S` active

Which result was noted for this molecule in the test: `O=[N+]([O-])c1cccc(-c2nc3cc4nc5ccccc5[nH]c4cc3n2)c1` inactive

Which result was noted for this molecule in the test: `O=c1[nH]c(Cc2nc3ccccc3s2)nc2cc(Br)ccc12` inactive

Which result was noted for this molecule in the test: `O=C(O)c1cn(C2CC2)c2cc(N3CCN(Cc4ccc5ccccc5c4O)CC3)c(F)cc2c1=O` inactive

====

- Test system: NCI-H226 lung
- EXPERIMENT_DESCRIPTION: NCI-60 one-dose screen, 48 h (100 = growth as untreated, 0 = no growth, -100 = all killed)
- REPORTED_CONDITIONS: 10 µM unless noted
This is part of a sample that, as a whole, favours compounds with a hit. Of some 83,000 tested, about 20% had one in any assay.
Below, each of the compounds is paired with its reported growth value.
Write the number in % without appending the unit.

// lookup growth for `Nc1nc(N)c(-c2ccc(Cl)c(Cl)c2)c(CBr)n1` 93.3

// lookup growth for CCOC(=O)C1=C(C)NC(=O)NC1c1c(Cl)n(CCCl)c2ccccc12 (stereo not given) 92

// lookup growth for `CC(C)(C)CC(C)(C)NC(=O)Nc1ncccc1OCc1ccccc1` 91.6

// lookup growth for `Cc1ccc(-c2nc([P+](c3ccccc3)(c3ccccc3)c3ccccc3)c(S(=O)(=O)c3ccc(C)cc3)o2)cc1` 46.9

// lookup growth for `CCSC(SCC)c1ccc(Cl)cc1` 102

// lookup growth for `O=S(=O)(Nc1ccc(F)cc1F)c1ccc(-c2cnc(C3CC3)o2)cc1` 64.3

New cases:
// lookup growth for CC1=C([Se]CC(OC(=O)CC[Se]c2ccccc2)C(=O)NC(C)(C)C)C(=O)c2ccccc2C1=O (stereo not given) -49.4

// lookup growth for `[O-]/[N+](=C\c1ccc(-n2cc(Cc3ccccc3Cc3cn(-c4ccc(/C=[N+](/[O-])c5ccccc5)cc4)nn3)nn2)cc1)c1ccccc1` 101

// lookup growth for `Cn1cc(-c2nonc2-c2cn(C)c3ccccc23)c2ccccc21` 81

// lookup growth for `CCOC(=O)c1ccc(NC(=O)c2nc(-c3cc(OC)c(OC)c(OC)c3)n(-c3ccc(Cl)cc3)n2)cc1` 90.9

====

- System: SW-620 colon
- EXPERIMENT_DESCRIPTION: NCI-60 one-dose screen, 48 h
- REPORTED_CONDITIONS: 10 µM unless noted
Compounds without any hit were thinned out: in the full panel of roughly 83,000, 20% have a hit. Active and inactive are the calls of the source. The calls were made as follows: active = growth percent below 10; inactive = the rest.
Tick one outcome: active, inactive

Example entries and their recorded answers appear below.
Which result was noted for this compound in the test: C=C1CC[C@@H]2[C@](C)(COC(C)=O)[C@H](OC(C)=O)CC[C@@]2(C)[C@@H]1CC(Nc1ccc(S(=O)(=O)Nc2ncccn2)cc1)C1=CCOC1=O (some centres undefined) active

Which result was noted for this compound in the test: Cc1ccc(C2=Nc3c(N)ncnc3NC(c3cccc(Nc4ccnc5cc(C(F)(F)F)ccc45)c3)C2)cc1 (centres undefined) inactive

Which result was noted for this compound in the test: `COc1ccc(-c2noc(C(=O)O)c2-c2cc(OC)c(OC)c(OC)c2)cc1` inactive

New cases:
Which result was noted for this compound in the test: O=CN1N=C(c2cccc(Nc3ccnc4cc(Cl)ccc34)c2)CC1c1ccccc1 (centres undefined) inactive

====

- Tested on: NCI-H23 lung
- EXPERIMENT_DESCRIPTION: NCI-60 one-dose screen, 48 h (100 = growth as untreated, 0 = no growth, -100 = all killed)
- REPORTED_CONDITIONS: 10 µM unless noted
This is part of a sample that, as a whole, favours compounds with a hit. Of some 83,000 tested, about 20% had one in any assay.
Below, each of the compounds is paired with its reported growth value.
Write the number in % without appending the unit.

// lookup growth for `CCOC(=O)c1c2c(n3cccc(F)c13)C(=O)c1ncccc1C2=O` -0.249

====

- System: TK-10 renal
- EXPERIMENT_DESCRIPTION: NCI-60 one-dose screen, 48 h (100 = growth as untreated, 0 = no growth, -100 = all killed)
- REPORTED_CONDITIONS: 10 µM unless noted
This is part of a sample that, as a whole, favours compounds with a hit. Of some 83,000 tested, about 20% had one in any assay.
MEASUREMENT_TYPE: growth (%)
Write the number in % without appending the unit.

// below: answered compounds
# value lookup — system TK-10 renal, readout growth, item N#CC1=C(c2ccccc2)Nc2c(c(-c3ccc(Cl)cc3)nn2-c2ccccc2)C12C(=O)Nc1ccc(Cl)cc12 (stereo unspecified) 73.7

# value lookup — system TK-10 renal, readout growth, item `CC1CCN(CCOc2ccc(CNc3ccc4nc(CCC5CCCCC5)[nH]c4c3)cc2)CC1` 73.1

# value lookup — system TK-10 renal, readout growth, item `COc1ccc(C2=C(Nc3ccc(C(=O)Nc4ccccc4)cc3)C(=O)N(C)C2=O)cc1` 95.4

# value lookup — system TK-10 renal, readout growth, item CC(O)(c1ccccc1)C(c1ccccc1)C1CCCCN1 (stereo unspecified) 102

New cases:
# value lookup — system TK-10 renal, readout growth, item `Cc1ccc(NC(=O)Cn2cc(CN3CCN(c4ccnc5cc(Cl)ccc45)CC3)nn2)cc1` 95.4

# value lookup — system TK-10 renal, readout growth, item COc1ccc(C2CC(c3ccc(Nc4nc(Nc5ccccc5)nc(Nc5ccccc5)n4)cc3)=NN2C(C)=O)cc1 (stereo unspecified) 104

# value lookup — system TK-10 renal, readout growth, item `COC12C=C/C(=C(/C(=O)OCc3ccncn3)C(=O)CCCCCCCCC3(OC)C=C/C(=C(/C(=O)OCc4ccncn4)C(=O)CCCCCCCC1)O3)O2` 9.83

# value lookup — system TK-10 renal, readout growth, item `COc1ccc(OC)c(Nc2nnc(-c3ccc(O)c(OC)c3)o2)c1` 14.8

# value lookup — system TK-10 renal, readout growth, item `Cc1cccc(/C=C2\CN(C(=O)OC(C)(C)C)C/C(=C\c3cccc(C)c3)C2=O)c1` 96.1

# value lookup — system TK-10 renal, readout growth, item `COc1cc2ncnc(Nc3ccc(F)c(Cl)c3)c2cc1OCC(=O)N1CCN(c2ccccc2)CC1` 42.4

# value lookup — system TK-10 renal, readout growth, item `Cc1ccc(-c2nc(N3CCCNCC3)c3oc(-c4ccc(C)cc4)nc3n2)cc1` -1.53

====

- Tested on: HCT-15 colon
- EXPERIMENT_DESCRIPTION: NCI-60 one-dose screen, 48 h (100 = growth as untreated, 0 = no growth, -100 = all killed)
- REPORTED_CONDITIONS: 10 µM unless noted
This is part of a sample that, as a whole, favours compounds with a hit. Of some 83,000 tested, about 20% had one in any assay.
Criterion: growth strictly under 40%. Met: true. Not met: false.

Dear reviewer, please state whether `COc1ccc(C(=O)c2cc3c(N)c(C(=O)Nc4ccc(C)cc4)sc3nc2C)cc1` has growth strictly beneath 40%. true

Dear reviewer, please state whether `CCCCCOC(=O)c1c(C)[nH]c(/C=C2\N=C(c3ccc[nH]3)C=C2OC)c1C` has growth strictly beneath 40%. true

Dear reviewer, please state whether `O=S(=O)(NCCCNc1nccc(-c2c(-c3ccc(F)c(O)c3)nc3sccn23)n1)c1ccccc1` has growth strictly beneath 40%. false

New cases:
Dear reviewer, please state whether `c1cnc2c(-c3nc4ccc5[nH]ncc5c4c4c3CCCC4)c[nH]c2c1` has growth strictly beneath 40%. false

Dear reviewer, please state whether N#CSCC1CC(O)(c2ccccc2)CC(c2ccc(F)cc2)O1 (stereo not given) has growth strictly beneath 40%. true

Dear reviewer, please state whether `COc1ccc(-c2cc(-c3cc(OC)c(OC)c(OC)c3)c(C#N)c(=O)n2CCCCC(=O)NO)cc1` has growth strictly beneath 40%. true
